Biological target: Gamma-aminobutyric acid receptor subunit rho-1 (Homo sapiens, UniProt P24046)
Sequence (P24046 whole entry): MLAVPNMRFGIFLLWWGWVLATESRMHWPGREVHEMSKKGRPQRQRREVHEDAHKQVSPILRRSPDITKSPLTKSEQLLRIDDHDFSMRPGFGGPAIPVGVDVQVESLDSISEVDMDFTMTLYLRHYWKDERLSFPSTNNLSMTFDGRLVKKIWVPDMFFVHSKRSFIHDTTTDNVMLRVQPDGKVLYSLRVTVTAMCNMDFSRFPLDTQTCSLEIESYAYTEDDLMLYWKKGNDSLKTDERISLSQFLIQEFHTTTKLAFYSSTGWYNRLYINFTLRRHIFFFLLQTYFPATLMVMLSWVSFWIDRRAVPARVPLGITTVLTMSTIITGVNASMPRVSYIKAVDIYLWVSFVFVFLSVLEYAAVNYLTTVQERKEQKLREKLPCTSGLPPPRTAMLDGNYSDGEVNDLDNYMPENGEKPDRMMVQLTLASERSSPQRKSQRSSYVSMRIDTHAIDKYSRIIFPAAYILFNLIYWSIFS
Assay: Antagonist activity at human GABAc Rho1 receptor expressed in Xenopus oocytes assessed as whole cell current production by two electrode voltage clamp method
pIC50: −log10 of the molar value.
TEST_READOUT: pIC50

Solved cases (3 shown):
STRUCTURE	TEST_READOUT	MEASUREMENT
CP(=O)(O)[C@H]1C[C@H](N)C1	pIC50	< 4.00
NCC(=O)CCC(=O)O	pIC50	4.89
NC[C@@H]1C[C@@H]1C(=O)O	pIC50	< 3.10

Q. Would you mind telling me what pIC50 value was observed for "CP(=O)(O)[C@H]1C[C@@H](N)C1" ?
A. < 4.00
